- MEASURED TARGET: OXA-51 (Acinetobacter baumannii)
- Sequence (Q5QT35 26-274): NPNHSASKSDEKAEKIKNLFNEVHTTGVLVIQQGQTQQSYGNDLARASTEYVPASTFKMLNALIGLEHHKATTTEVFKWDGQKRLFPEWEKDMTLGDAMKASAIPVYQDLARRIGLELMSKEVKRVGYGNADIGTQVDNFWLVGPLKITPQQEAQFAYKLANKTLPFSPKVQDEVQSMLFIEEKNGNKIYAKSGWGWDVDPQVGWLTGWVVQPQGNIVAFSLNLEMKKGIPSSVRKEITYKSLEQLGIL
- SETTINGS: OXA-51; 30 min pre-incubation, nitrocefin 100 μM
MEASUREMENT NAME: IC50 (nM)

* N#C[C@@H]1CC[C@@H]2CN1C(=O)N2OC(F)(F)C(=O)[O-].[Na+] [AF2] | 51

----------
- System: Serratia marcescens (SMA) isolates
- EXPERIMENTAL PROTOCOL: MIC of compounds alone and combined with antibacterials, broth microdilution (CLSI)
- Format: cell-based
- SETTINGS: Serratia marcescens
MEASUREMENT NAME: MIC

* CC1(C)S[C@@H]2[C@H](NC(=O)[C@H](N)c3ccc(O)cc3)C(=O)N2[C@H]1C(=O)O | > 128 µg/mL
* N#C[C@@H]1CC[C@@H]2CN1C(=O)N2OC(F)(F)C(=O)[O-].[Na+] | > 32 µg/mL
* CC(C)(O/N=C(\C(=O)N[C@@H]1C(=O)N2C(C(=O)[O-])=C(C[n+]3ccccc3)CS[C@H]12)c1csc(N)n1)C(=O)O | > 256 µg/mL
* CO/N=C(\C(=O)N[C@@H]1C(=O)N2C(C(=O)O)=C(COC(N)=O)CS[C@H]12)c1ccco1 | > 256 µg/mL

----------
- System: Escherichia coli (ECO) isolates
- EXPERIMENTAL PROTOCOL: MIC of compounds alone and combined with antibacterials, broth microdilution (CLSI)
- Type: cell-based
- SETTINGS: ECO 190457; AF1 @ 4 μg/mL
MEASUREMENT NAME: MIC ATB in combination (µg/mL)

• CC1(C)S[C@@H]2[C@H](NC(=O)[C@H](N)c3ccc(O)cc3)C(=O)N2[C@H]1C(=O)O = 64
• CO/N=C(\C(=O)N[C@@H]1C(=O)N2C(C(=O)O)=C(COC(N)=O)CS[C@H]12)c1ccco1 = 8

----------
- EXPERIMENTAL PROTOCOL: in vitro
- Type: in vitro ADME
- SETTINGS: mouse, plasma
MEASUREMENT NAME: half-life at 4 µg/ml

* COCC(C)(C)OC(=O)C(F)(F)ON1C(=O)N2C[C@H]1CC[C@H]2C(N)=O | < 1 min
* CC1(OC(=O)C(F)(F)ON2C(=O)N3C[C@H]2CC[C@H]3C(N)=O)CCOCC1 | < 1 min

----------
# MIC ATB in combination values compiled below
- Tested on: Escherichia coli (ECO) isolates
- EXPERIMENTAL PROTOCOL: MIC of compounds alone and combined with antibacterials, broth microdilution (CLSI)
- Format: cell-based
- SETTINGS: ECO 190317; AF1 @ 4 μg/mL
MEASUREMENT NAME: MIC ATB in combination (µg/mL)

• CC1(C)S[C@@H]2[C@H](NC(=O)[C@H](N)c3ccc(O)cc3)C(=O)N2[C@H]1C(=O)O = 64
• CO/N=C(\C(=O)N[C@@H]1C(=O)N2C(C(=O)O)=C(COC(N)=O)CS[C@H]12)c1ccco1 = 4
